These data points were gathered from patent US20260285849A1.

# System: H9C2 cardiomyocytes
# Test settings: 5 μM; 6 h hypoxia, 12 h reoxygenation; CCK 450 nm
Recorded measurements of OD, one per entry
Just the number, please, no unit attached.

Recorded OD, per entry:
compound=Cc1c(O)cc(O)c2c(=O)c(Cc3ccc4c(c3)OCO4)coc12 observed_measurement=0.466
compound="Cc1c(O)c(C)c2occ(Cc3ccc4c(c3)OCO4)c(=O)c2c1O [methyl ophiopogonone A, reference compound]" observed_measurement=0.501

Read the next record carefully.
Respond only with OD recorded for `Cc1c(O)cc2occ(Cc3ccc4c(c3)OCO4)c(=O)c2c1O`
0.543

----------
# Test system: Rat H9C2 cardiomyocytes
# Assay details: cells
# Test settings: H9c2, 24 h, read-out: Cell survival rate
# Lookup of reported viability at 10 µM keyed by entry
Respond numerically; units are % and should not be typed.

Check the records and state viability at 10 µM for `Cc1c(O)cc(O)c2c(=O)c(Cc3ccc4c(c3)OCO4)coc12`
66.7

Please list viability at 10 µM recorded for the compound COc1ccc([C@@H]2Sc3ccccc3N(CCN(C)C)C(=O)[C@@H]2OC(C)=O)cc1 [Diltiazem, reference compound]
63.9

Fill in reported viability at 10 µM for this entry: `O=c1c(Cc2ccc3c(c2)OCO3)coc2cc(O)cc(O)c12`
69.4

For the compound `Cc1c(O)cc2occ(Cc3ccc4c(c3)OCO4)c(=O)c2c1O` , report viability at 10 µM.
62.1

----------
Recorded OD for the following compounds
# Tested on: Rat H9C2 cardiomyocytes
# Test settings: 10 μM; 50 μM Ang II 24 h; MTT 570 nm

Given `Cc1c(O)cc(O)c2c(=O)c(Cc3ccc4c(c3)OCO4)coc12` , report its OD on Rat H9C2 cardiomyocytes.
0.814 ± 0.053

Identify measured OD obtained with Rat H9C2 cardiomyocytes for COc1ccc([C@@H]2Sc3ccccc3N(CCN(C)C)C(=O)[C@@H]2OC(C)=O)cc1 [Diltiazem, reference compound] .
0.857 ± 0.042

Under Rat H9C2 cardiomyocytes, report OD for `O=c1c(Cc2ccc3c(c2)OCO3)coc2cc(O)cc(O)c12`
0.823 ± 0.048

Check Rat H9C2 cardiomyocytes data and give OD for Cc1c(O)c(C)c2occ(Cc3ccc4c(c3)OCO4)c(=O)c2c1O [methyl ophiopogonone A, reference compound] .
0.833 ± 0.041

----------
# Tested on: Rat H9C2 cardiomyocytes
# Test settings: 5 μM; 800 μM ISO 24 h; MTT 570 nm
Observed property: OD
Number only, no unit.

Some compounds with known OD results, for comparison:
compound="O=c1c(Cc2ccc3c(c2)OCO3)coc2cc(O)cc(O)c12 [Formula I]" observed_property=OD observed_measurement=0.807
compound="Cc1c(O)c(C)c2occ(Cc3ccc4c(c3)OCO4)c(=O)c2c1O [methyl ophiopogonone A, reference compound]" observed_property=OD observed_measurement=0.801
compound="Cc1c(O)cc(O)c2c(=O)c(Cc3ccc4c(c3)OCO4)coc12 [Formula II]" observed_property=OD observed_measurement=0.784

Next item in the queue.
Please report the measured OD for Cc1c(O)cc2occ(Cc3ccc4c(c3)OCO4)c(=O)c2c1O [Formula III]
0.792
